Where these numbers come from: paper PMC8156206

The reader will find reported melting point values listed item by item below.
Your answer should be a plain number; it is taken to be in °C.

* [Se]=C(Nc1ccccc1)NC12CC3CC(CC(C3)C1)C2 | 161

Can you share its melting point? I mean this compound: "O=c1ccc2cc(NC(=[Se])Nc3ccc(Cl)cc3)ccc2o1"
156

May I ask what melting point has been recorded for "O=c1ccc2cc(NC(=[Se])Nc3ccccc3)ccc2o1" ?
169

For "CCCCCCNC(=[Se])Nc1ccc(OC)cc1" , what is its reported melting point?
97

State the recorded melting point for this entry: "CCCCCCNC(=[Se])Nc1ccc(C#N)cc1"
125
